Values from the Immune Epitope Database (IEDB)

Target: HLA-A*02:06
Test: IEDB peptide-MHC binding, purified MHC/competitive/radioactivity; filed as Kd, often an IC50 or EC50 that approximates it; bounds were set here for any values at or beyond the usual limits of such assays
Conditions: source organism: Homo sapiens
pKd: −log10 of the molar value.
parameter measured: pKd

INSERT INTO measurements (record_sequence, relation_symbol, numeric_value) VALUES
  ('ELVENGKKV', '=', 5.02),
  ('DLNSFEQLCI', '≤', 3.89);

###

Target: HLA-B*46:01
Assay: IEDB peptide-MHC binding, purified MHC/direct/fluorescence; filed as Kd, often an IC50 or EC50 that approximates it; bounds were set here for any values at or beyond the usual limits of such assays
Settings: source organism: Orthohantavirus negraense
parameter measured: Kd

INSERT INTO assay_data (record_sequence, result) VALUES
  ('MSRKLHRYI', '≥ 20 µM');

###

Molecular target: HLA-A*24:03
Experiment: IEDB peptide-MHC binding, purified MHC/direct/fluorescence; filed as Kd, often an IC50 or EC50 that approximates it; bounds were set here for any values at or beyond the usual limits of such assays
Details: source organism: Orthohantavirus tulaense
pKd: −log10 of the molar value.
parameter measured: pKd

INSERT INTO measurements (record_sequence, assayed_target, result) VALUES
  ('MSRKLHRYI', 'HLA-A*24:03', '≤ 4.70');

###

Molecular target: HLA-A*02:12
Assay: IEDB peptide-MHC binding, purified MHC/direct/fluorescence; filed as Kd, often an IC50 or EC50 that approximates it; bounds were set here for any values at or beyond the usual limits of such assays
Conditions: source organism: Vibrio vulnificus CMCP6
pKd: −log10 of the molar value.
parameter measured: pKd

INSERT INTO assay_data (record_sequence, assayed_target, numeric_value) VALUES
  ('GLKELGDWV', 'HLA-A*02:12', 6.92);

###

Target: HLA-A*69:01
Test: IEDB peptide-MHC binding, purified MHC/competitive/fluorescence; filed as Kd, often an IC50 or EC50 that approximates it; bounds were set here for any values at or beyond the usual limits of such assays
Details: source organism: Entamoeba histolytica HM-1:IMSS
parameter measured: Kd

INSERT INTO measurements (record_sequence, result) VALUES
  ('RSLVCLAPK', '≥ 20 µM');

###

Target: HLA-A*23:01
Experiment: IEDB peptide-MHC binding, purified MHC/competitive/radioactivity; filed as Kd, often an IC50 or EC50 that approximates it; bounds were set here for any values at or beyond the usual limits of such assays
Conditions: source organism: Dengue virus 1 Brazil/97-11/1997
pKd: −log10 of the molar value.
parameter measured: pKd

INSERT INTO assay_data (record_sequence, parameter_measured, numeric_value) VALUES
  ('SYKVASEGF', 'pKd', 6.20);

###

Biological target: HLA-A*02:01
Experiment: IEDB peptide-MHC binding, purified MHC/direct/fluorescence; filed as Kd, often an IC50 or EC50 that approximates it; bounds were set here for any values at or beyond the usual limits of such assays
Conditions: source organism: Marburg virus - Musoke, Kenya, 1980
parameter measured: Kd (pM)

INSERT INTO measurements (record_sequence, numeric_value) VALUES
  ('ALLTGSYTI', 500);

###

Molecular target: HLA-B*15:01
Assay: IEDB peptide-MHC binding, purified MHC/competitive/radioactivity; filed as Kd, often an IC50 or EC50 that approximates it; bounds were set here for any values at or beyond the usual limits of such assays
Conditions: source organism: Dengue virus 3 Martinique/1243/1999
parameter measured: Kd

INSERT INTO measurements (record_sequence, result) VALUES
  ('YMGEDGCWY', '14.8 nM'),
  ('WLGARYLEF', '158 nM');
